Data provenance: patent US10287305B2

# target-or-system: UniProtKB O43614
# Sequence (O43614 whole entry): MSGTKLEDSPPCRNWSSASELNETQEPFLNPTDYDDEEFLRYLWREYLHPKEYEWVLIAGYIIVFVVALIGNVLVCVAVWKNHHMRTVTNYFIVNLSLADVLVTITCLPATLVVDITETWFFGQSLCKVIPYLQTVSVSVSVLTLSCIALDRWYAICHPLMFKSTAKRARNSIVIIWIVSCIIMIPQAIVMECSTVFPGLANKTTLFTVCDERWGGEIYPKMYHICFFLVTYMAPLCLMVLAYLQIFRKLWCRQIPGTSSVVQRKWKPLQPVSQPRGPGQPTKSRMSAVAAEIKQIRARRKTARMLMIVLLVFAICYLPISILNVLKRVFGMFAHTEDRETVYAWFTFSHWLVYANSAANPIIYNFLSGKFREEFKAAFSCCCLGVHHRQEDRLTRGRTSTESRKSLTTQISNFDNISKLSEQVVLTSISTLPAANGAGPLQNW
# assay-overview: Measurement of orexin type 2 receptor agonist activity (Experimental Example 2-1, FLIPR TETRA, intracellular Ca2+)
# Type: cell-based
# stated-conditions: CHO dhfr- cells expressing hOX2R; agonist activity, 10 nM human orexin B = 100%
measured-parameter: pEC50
pEC50 is a log-scale quantity: -log10 of the concentration expressed in molar.

Look over these answered cases.
compound	pEC50
CC(C)[C@H]1CC[C@@H](OC[C@H]2[C@@H](NS(C)(=O)=O)CCCN2C(=O)Cn2cnccc2=O)CC1 (relative stereo) [Example 93]	5.64
CS(=O)(=O)N[C@H]1CCCN[C@H]1CO[C@H]1CC[C@@H](c2cc(F)ccc2F)CC1 [Example 10]	6.66
CCS(=O)(=O)N[C@H]1CCCN(C(=O)Nc2ccccc2)[C@H]1CO[C@H]1CC[C@@H](C)CC1 (relative stereo) [Example 37]	6.06
CC(=O)N1CCC[C@H](NS(C)(=O)=O)[C@@H]1CO[C@H]1CC[C@@H](c2ccc(F)cc2)CC1 (relative stereo) [Example 112]	6.38
CC(C)NC(=O)N1CCC[C@H](NS(C)(=O)=O)[C@@H]1CO[C@H]1CC[C@@H](C(C)C)CC1 (relative stereo) [Example 101]	8.64
CCNC(=O)N1CCC[C@H](NS(C)(=O)=O)[C@@H]1COC1CCN(c2ncccn2)CC1 (relative stereo) [Example 118]	8.34
CC(C)[C@H]1CC[C@@H](OC[C@H]2[C@@H](NS(C)(=O)=O)CCCN2C(=O)C(C)(C)C)CC1 (relative stereo) [Example 53]	6.01
CC(C)[C@H]1CC[C@@H](OC[C@H]2[C@@H](NS(C)(=O)=O)CCCN2C(=O)Oc2ccccc2)CC1 (relative stereo) [Example 43]	5.96
CS(=O)(=O)N[C@H]1CCCN(C(=O)C2CC2)[C@H]1CO[C@H]1CC[C@@H](c2ccccc2)CC1 [Example 31]	9.18
CC(=O)N1CCC[C@H](NS(=O)(=O)N(C)C)[C@@H]1CO[C@H]1CC[C@@H](C(C)C)CC1 (relative stereo) [Example 78]	7.20

# get_value(readout='pEC50', item= CC(=O)N1CCC[C@H](NS(C)(=O)=O)[C@@H]1CO[C@H]1CC[C@@H](c2c(F)cccc2F)CC1 [Example 14] ) 8.18

# get_value(readout='pEC50', item= CC(C)[C@H]1CC[C@@H](OC[C@H]2[C@@H](NS(C)(=O)=O)CCCN2C(=O)NC2CC2)CC1 (relative stereo) [Example 99] ) 7.89

// lookup pEC50 for CC(C)OC(=O)N1CCC[C@H](NS(=O)(=O)N(C)C)[C@@H]1COC1CCN(c2ncccn2)CC1 [Example 29] 7.77

Query: pEC50; subject: CCNS(=O)(=O)N[C@H]1CCCN(C(C)=O)[C@H]1CO[C@H]1CC[C@@H](C(C)C)CC1 (relative stereo) [Example 79] 6.48

Which value of pEC50 has been reported for CC(C)[C@H]1CC[C@@H](OC[C@H]2[C@@H](NS(C)(=O)=O)CCCN2S(=O)(=O)c2cccnc2)CC1 (relative stereo) [Example 66] in the records? 5.42

Using the record for COC(=O)CCC(=O)N1CCC[C@H](NS(C)(=O)=O)[C@@H]1CO[C@H]1CC[C@@H](C(C)C)CC1 (relative stereo) [Example 55] , report its pEC50. 6.85

Which pEC50 is reported for this compound? CC(C)[C@H]1CC[C@@H](OC[C@H]2[C@@H](NS(C)(=O)=O)CCCN2C(=O)C2CC(O)C2)CC1 (some centres unmarked) [Example 92] 6.43

# query: pEC50 of entry CC(C)[C@H]1CC[C@@H](OC[C@H]2[C@@H](NS(C)(=O)=O)CCCN2C(=O)C2CN(S(C)(=O)=O)C2)CC1 (relative stereo) [Example 90] 5.55

// returns reported pEC50 for input CCCS(=O)(=O)N[C@H]1CCCN(C(C)=O)[C@H]1CO[C@H]1CC[C@@H](C(C)C)CC1 (relative stereo) [Example 77] 6.00

Using the record for CN(C)S(=O)(=O)N[C@H]1CCCN[C@H]1CO[C@H]1CC[C@@H](c2ccccc2)CC1 (relative stereo) [Example 109] , report its pEC50. 6.32

Could you tell me which pEC50 is on file for CCCC(=O)N1CCC[C@H](NS(C)(=O)=O)[C@@H]1CO[C@H]1CC[C@@H](C(C)C)CC1 (relative stereo) [Example 35] ? 7.03

Recorded pEC50 of CC(=O)N1CCC[C@H](NS(C)(=O)=O)[C@@H]1CO[C@H]1C[C@@H](c2ccccc2)C1 (relative stereo) [Example 114] , please. 5.46

Sample CC(C)[C@H]1CC[C@@H](OC[C@H]2[C@@H](NS(C)(=O)=O)CCCN2C(=O)CCc2ccccc2)CC1 (relative stereo) [Example 54] — what was its pEC50? 5.39

Please report the recorded pEC50 for CS(=O)(=O)N[C@H]1CCCN(C(=O)C2COC2)[C@H]1CO[C@H]1CC[C@@H](c2ccccc2)CC1 (relative stereo) [Example 120] . 7.21

Reported pEC50 for COC(=O)N1CCC[C@H](NS(C)(=O)=O)[C@@H]1CO[C@H]1CC[C@@H](c2ccccc2)CC1 [Example 5] : what is it? 8.66

Any idea what its pEC50 is? The compound is CC(C)[C@H]1CC[C@@H](OC[C@H]2[C@@H](NS(C)(=O)=O)CCCN2C(=O)CCO)CC1 (relative stereo) [Example 72] 7.05
